System: MS2 coat protein
assay.remarks: apparent Kd, MS2 coat protein; higher = weaker binding; RNA-MaP array
assay.setup: designed as: OFF switch for theophylline; no ligand
measurement.name: apparent Kd

[[record]]
sequence_record = "AGAUCGCUGACCGCGGGAGAUGCGCAGGAUACCAGCCUAAUGUCCGGCCCUUGGCAGCCUGUAACAUGAGGAUCACCCAUGUGAA"
recorded_result = "0.0171 µM"

[[record]]
sequence_record = "AUGCACAUCUAGGAUACCAGCACCCUUAUGUCACUAGUUAACAUGAGGAUCACCCAUGUUUGCCCUUGGCAGCCUCAUUGACCAU"
recorded_result = "0.0685 µM"

[[record]]
sequence_record = "CCUUUUAUUAAUGAUACCAGCGUAUUAAGCAUCACCUUGGACAUGAGGAUCACCCAUGUACGCCCUUGGCAGCAUACCACUGGGU"
recorded_result = "0.0425 µM"

[[record]]
sequence_record = "ACACGUGACAAGGAUACCAGCCUGGCUAGUUCAAACCCUCACAUGAGGAUCACCCAUGUAGGCCCUUGGCAGCCUAUAGUCUAAG"
recorded_result = "0.0319 µM"

[[record]]
sequence_record = "UGCGAUGAACCUGAUACCAGAUGUAUUUGCUCCUCGGACAACAUGAGGAUCACCCAUGUCAUCCCUUGGCAGCAGGAGCGAAAGC"
recorded_result = "0.0119 µM"

[[record]]
sequence_record = "GAAGAGAGGAUACCGUUUGUAUACAACGAUACCAGUGGUAUGUAUCACCCUUGGCAGCGUGAGACAUGAGGAUCACCCAUGUGGC"
recorded_result = "0.0212 µM"

